The reader will find reported RIA for RIIIa (V158) values listed item by item below.
Molecular target: T1, human FcγRIIIa V158 allotype, extracellular domain (human, UniProt P08637 17-208)
T1 construct: extracellular domain; expressed in HEK-EBNA cells; also called hFcγRIIIa; CD16; not shown: Flag10His tag of the vector
T1 sequence (P08637 17-208 F176V): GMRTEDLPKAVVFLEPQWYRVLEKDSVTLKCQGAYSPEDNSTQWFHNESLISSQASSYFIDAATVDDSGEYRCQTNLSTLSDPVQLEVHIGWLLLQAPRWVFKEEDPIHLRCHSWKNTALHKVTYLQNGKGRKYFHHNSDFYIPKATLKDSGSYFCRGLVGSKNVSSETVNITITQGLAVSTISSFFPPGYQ
Assay: RIA, 35S-labelled Fc on coated receptor
Enter your answer as a number in fold over wild-type; do not include the unit.

Worked examples follow.
Fc polypeptide variant 126F07 (Fcγ1, in vitro translated) (other, Fc region only, in vitro translated with 35S-methionine for RIA) AHTCPLCPAPELLGGPSVFLFPPKPKDTLMISRTPEVTCVVVDVSHEDPEVKFNWYVDGVEVHNAKAKPREEQYNSTYRVVSVLTVLHQDWLNGKEYKCKVSNKALPAPIEKTISKAKGQPREPQVYTLPPSREEMTKNQVSQTCLVKGFYPSDIAVEWESNGQPESNYKTTPPVLDSDGSFFLYSKLTVDKSRWQQGNVFSCSVMHEALHNHYTQKGLSLSPGK :: 1.9
Fc polypeptide variant 136G11 (Fcγ1, in vitro translated) (other, Fc region only, in vitro translated with 35S-methionine for RIA) AHTCPPCPAPELLGGPSVFLFPPKAKDTLMISRTPKVTCVVVDVSHEDPEVKFNWYVNGVEVHNARTKPREEQYDSAYRVVSVLTVLHQDWLNGKEYKCEVSNKALPAPIEKTISKAKGRPREPQVYTLPPAREEMTKNQVSPTCLVKGFYPSDIAVEWESNGQPENNYKTTPPVLDSDGSFFLYSKLTVDKSRWQQGNVFSCSVMHEALHNHYTQKSLSLSPGK :: 2.3
Fc polypeptide variant 125H10 (Fcγ1, in vitro translated) (other, Fc region only, in vitro translated with 35S-methionine for RIA) AHTCPPCPAPELLGGPSVFLFPPKPKDTLTISRTPEVTCVVVDVSHEDPEVKFNWYVDGVEVHNAKTKLREEQYNSTYRVVSVLTVLHQDWLNGKEYKCKVSNKALPAPIEKTISKAKGQPREPQVYTLAPSWEEMTKNQVSLTCLVKGFYPSDIAVEWESNGQPENDYKTTPPVLDSDGSFFLYGKLTVDKSRWQQGNVFSCFVMHESLHNHYTQKSLSLSPGK :: 1.7

Alright, here's another binder for you.
For the binder Fc polypeptide variant 135A09 (Fcγ1, in vitro translated) (other, Fc region only, in vitro translated with 35S-methionine for RIA) AHTCPPCPAPELLGGPSVFLFPPKPKDTLMISRTPEVTCVVVDVSHKDPEVKFNWYVDGVEVHNAKTKPREEQYNSTHRVVSVLTVLHQDWLNGKEYKCKVSNKALPAPIEKTISKAKGRPREPQVYTLPPSREEMTKNQVSLTCLVKGFYPSDIAVEWESNGQPENNYKTTPPVLDSDGSFFLYSKLTVDKSRWQQGNIFSCSVMHEALHNHYTQKSLSLSPAK , give its measured RIA for RIIIa (V158) value.
3.4
